Below: a set of entries, each annotated with reported Ratio of a (X) to a (R), ADRENALINE (head drawn).
Tested on: human blood-plaques (aggregation with adrenaline)
experimentalProtocol: Inhibition of blood-plaque aggregation induced by adrenaline
Format: cell-based
cond: adrenaline; X 2.5×10^-5 g/ml, R 5×10^-4 g/ml
Simply state the number, no unit and no words.

Worked cases, Ratio of a (X) to a (R), ADRENALINE (head drawn) given:
# molecule, targetDesc, readoutNumber
rows = [
    ("CCN(CC)CCCC(=O)c1csc2ccccc12 [Compound 9]", "human blood-plaques (aggregation with adrenaline)", 1),
    ("O=C(CCCN1CCCCC1)c1cc2ccccc2s1 [Compound 5]", "human blood-plaques (aggregation with adrenaline)", 1.1),
    ("O=C(CCCN1CCCC1)c1csc2ccccc12 [Compound 13]", "human blood-plaques (aggregation with adrenaline)", 1.1),
]

Okay, now this molecule:
Lab note: CN(C)CCCC(=O)c1cc2ccccc2s1 [Compound 4] gave Ratio of a (X) to a (R), ADRENALINE (head drawn) of 1

---

Test system: human blood-plaques (aggregation with D.P.A.)
experimentalProtocol: Inhibition of blood-plaque aggregation induced by D.P.A.
Format: cell-based
cond: D.P.A.; X 2.5×10^-5 g/ml, R 5×10^-4 g/ml
The following compounds are listed with their measured Ratio of a (X) to a (R), D.P.A. (head drawn) values.

Please review the following examples before continuing.
# compound, result
records = [
    ("C=CCN(CC=C)CCCC(=O)c1cc2ccccc2s1 [Compound 3]", "1.7×10^-1"),
    ("CCCN(CCC)CCCC(=O)c1csc2ccccc12 [Compound 11]", "1.8×10^-1"),
    ("CCN(CC)CCCC(=O)c1csc2ccccc12 [Compound 9]", "1.9×10^-1"),
    ("O=C(CCCN1CCOCC1)c1cc2ccccc2s1 [Compound 6]", "1.7×10^-1"),
    ("O=C(CCCN1CCCCCC1)c1csc2ccccc12 [Compound 16]", "5.5×10^-1"),
]

What the record says about O=C(CCCN1CCCC1)c1csc2ccccc12 [Compound 13] : Ratio of a (X) to a (R), D.P.A. (head drawn) is 2.3×10^-1

Sample O=C(CCCN1CCCCC1)c1cc2ccccc2s1 [Compound 5] ; Ratio of a (X) to a (R), D.P.A. (head drawn) observed: 1.5×10^-1

---

experimentalProtocol: Acute toxicity, oral, mouse (LD 50, Miller and Tainter)
Format: in vivo
cond: in vivo, death rate checked for seven days, read-out: 50% lethal dose (LD 50) (converted)
recordedMetric: LD50 at 168 h
Give the figure together with its unit, number first.

// recorded LD50 at 168 h for OCCN(CCO)c1nc(N2CCCCC2)c2nc(N(CCO)CCO)nc(N3CCCCC3)c2n1 [Dipyridamole, reference compound] : 2150 mg/kg

---

# activation at 10 µg/mL listing for each entry below
Test system: isolated heart of a gumea-pig
experimentalProtocol: Vaso-dilatatory activity, coronary flow of isolated perfused heart
cond: 1×10^-5 g/ml, coronary flow at climax of activity, Locke, 37° C.; read-out: Percentage flow increase P (X)
Expressed in %, but write only the number.

Here's what some known entries look like.
# molecule, readoutNumber
data = [
    ("CC(C)N(CCCC(=O)c1csc2ccccc12)C(C)C [Compound 12]", 33),
    ("CCCN(CCC)CCCC(=O)c1csc2ccccc12 [Compound 11]", 41),
    ("O=C(CCCN1CCCCCC1)c1csc2ccccc12 [Compound 15]", 172),
    ("O=C(CCCN1CCOCC1)c1cc2ccccc2s1 [Compound 1]", 28),
]

// activation at 10 µg/mL value for CCN(CC)CCCC(=O)c1csc2ccccc12 [Compound 10] : 60

---

System: human blood-plaques (aggregation with adrenaline)
experimentalProtocol: Inhibition of blood-plaque aggregation induced by adrenaline
Assay type: cell-based
cond: adrenaline; X 2.5×10^-5 g/ml, R 5×10^-4 g/ml
recordedMetric: Ratio of a (X) to a (R), ADRENALINE (head drawn)

Answered examples (3):
# recordSmiles, result
measured = [
    ("O=C(CCCN1CCCCCC1)c1csc2ccccc12", "9.5×10^-1"),
    ("CC(C)N(CCCC(=O)c1csc2ccccc12)C(C)C", "9.1×10^-1"),
    ("O=C(CCCN1CCOCC1)c1cc2ccccc2s1", "1×10^-1"),
]

Form: compound = O=C(CCCN1CCCCC1)c1csc2ccccc12 ; Ratio of a (X) to a (R), ADRENALINE (head drawn) = 5.5×10^-1

Reported Ratio of a (X) to a (R), ADRENALINE (head drawn) ( CCCN(CCC)CCCC(=O)c1csc2ccccc12 ) = 5.8×10^-1
